TGT: Farnesyl-protein transferase from bovine brain (partially purified) (Bos taurus, UniProt P29702+P49355)
Construct: Cerebral lobes from bovine brains were homogenized in lysis buffer
TEST SUMMARY: Inhibition of Ras farnesylation by tetrapeptides
RUN PARAMETERS: Ras-CVLS at 3.5 µM, 0.25 µM [³H]FPP; average of 2-5 determinations
Where a SMILES comes first, the peptide text is derived from it. [ ]: non-standard residue; d: D form.
Here the recorded IC50 is given for each entry.
A number alone suffices; assume µM.

Field request: IC50 | item: "CC(C)C[C@H](NC(=O)[C@@H](NC(=O)[C@@H](N)CS)C(C)C)C(=O)N[C@H](CO)C(=O)O"
11

Field request: IC50 | item: "CC(C)C[C@@H](NC(=O)[C@@H](NC(=O)[C@@H](N)CS)C(C)C)C(=O)N[C@@H](CO)C(=O)O"
20

Field request: IC50 | item: CC(=O)N[C@H](CS)C(=O)N[C@H](C(=O)N[C@@H](CC(C)C)C(=O)N[C@@H](CO)C(=O)O)C(C)C [N-Ac-(dC)VLS] (Ac-[dC]VLS-OH)
60

Field request: IC50 | item: CC(=O)N[C@@H](CS)C(=O)N[C@H](C(=O)N[C@@H](CC(C)C)C(=O)N[C@@H](CO)C(=O)O)C(C)C [N-Ac-CVLS] (Ac-CVLS-OH)
2
